system under test: Mouse 11b-HSD1 (Mus musculus, UniProt P50172)
Sequence (P50172 whole entry): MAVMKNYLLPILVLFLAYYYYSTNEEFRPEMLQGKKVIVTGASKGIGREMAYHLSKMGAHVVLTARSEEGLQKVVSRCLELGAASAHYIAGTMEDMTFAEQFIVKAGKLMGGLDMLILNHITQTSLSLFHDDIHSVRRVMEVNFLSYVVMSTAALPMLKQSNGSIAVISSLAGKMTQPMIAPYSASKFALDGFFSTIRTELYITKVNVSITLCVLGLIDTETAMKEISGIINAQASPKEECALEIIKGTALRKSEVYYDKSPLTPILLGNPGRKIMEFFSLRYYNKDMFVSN
measurement notes: Inhibition of cortisone-to-cortisol conversion in CHO-K1 cells over-expressing mouse 11b-HSD1 (HTRF cortisol assay)
test parameters: CHO-K1 cells over-expressing mouse 11b-HSD1, 160 nM cortisone, 3 hours, 37° C.
pIC50: −log10 of the molar value.
observation type: pIC50

Lookup result for NC(=O)[C@]12CC3CC(C1)[C@@H](NC(=O)c1ccc(-c4cccs4)s1)C(C3)C2 ; measured pIC50: > 7.00

So for NC(=O)[C@]12CC3CC(C1)[C@@H](NC(=O)c1ccc(-c4ccccc4F)s1)C(C3)C2 , the logged pIC50 turned out to be > 7.00

Entry under test: NC(=O)[C@]12CC3CC(C1)[C@@H](NC(=O)c1ccc(-c4cccc(Cl)c4)o1)C(C3)C2 . Its pIC50 was > 7.00

// recorded pIC50 for COc1cccc2ccc(C(=O)N[C@H]3C4CC5CC3C[C@](C(N)=O)(C5)C4)nc12 : 6.30 to 7.00

Looking up Cc1csc(C(=O)N[C@H]2C3CC4CC2C[C@](C(N)=O)(C4)C3)c1 , I found its pIC50 recorded as 6.30 to 7.00

Form field pIC50, entry NC(=O)[C@]12CC3CC(C1)[C@@H](NC(=O)c1ccc4ccccc4[n+]1[O-])C(C3)C2 : 6.30 to 7.00

What the record says about Cn1c(C(=O)N[C@H]2C3CC4CC2C[C@](C(N)=O)(C4)C3)ccc1-c1ccccc1F : pIC50 is > 7.00

In plain terms, Cc1ccccc1-c1cc(C(=O)N[C@H]2C3CC4CC2C[C@](C(N)=O)(C4)C3)no1 has a documented pIC50 of < 6.30

Field pIC50 (entry CCCNc1cccc(C(=O)N[C@H]2C3CC4CC2C[C@](C(N)=O)(C4)C3)n1 ) reads > 7.00

What the record says about CCCOc1cccc(C(=O)N[C@H]2C3CC4CC2C[C@](C(N)=O)(C4)C3)n1 : pIC50 is > 7.00

// CC(C)Oc1cccc2ccc(C(=O)N[C@H]3C4CC5CC3C[C@](C(N)=O)(C5)C4)nc12 : pIC50 value = 6.30 to 7.00

The recorded pIC50 for entry NC(=O)[C@]12CC3CC(C1)[C@@H](NC(=O)c1ccc(-c4ccc([N+](=O)[O-])cc4)o1)C(C3)C2 equals < 6.30

pIC50 reading for COc1ccc(-c2ccc(C(=O)N[C@H]3C4CC5CC3C[C@](C(N)=O)(C5)C4)o2)cc1 : 6.30 to 7.00

====

For each entry below, report its pIC50 value.
system under test: Mouse 11b-HSD1 (Mus musculus, UniProt P50172)
Construct: expressed in transfected cells
measurement notes: Inhibition of cortisone-to-cortisol conversion in CHO-K1 cells over-expressing mouse 11b-HSD1 (HTRF cortisol assay)
Format: cell-based
test parameters: CHO-K1 cells over-expressing mouse 11b-HSD1, 160 nM cortisone, 3 hours, 37° C.
pIC50: −log10 of the molar value.

Kindly note the recorded pIC50 for COc1cccc(C(=O)N[C@H]2C3CC4CC2C[C@](C(N)=O)(C4)C3)n1 [Example 45] , which is 6.30 to 7.00

Looking up COc1ccccc1-c1cc(C(=O)N[C@H]2C3CC4CC2C[C@](C(N)=O)(C4)C3)no1 [Example 7] , I found its pIC50 recorded as < 6.30

Lab note: measured pIC50 of CN(C)c1cccc(C(=O)N[C@H]2C3CC4CC2C[C@](C(N)=O)(C4)C3)[n+]1[O-] [Example 65] was 6.30 to 7.00

Input NC(=O)[C@]12CC3CC(C1)[C@@H](NC(=O)c1cccc(OCc4ccccc4)n1)C(C3)C2 [Example 47] . Output pIC50: 6.30 to 7.00

Field pIC50 (entry CCCOc1cccc2ccc(C(=O)N[C@H]3C4CC5CC3C[C@](C(N)=O)(C5)C4)nc12 [Example 49] ) reads 6.30 to 7.00

Recorded result, Cc1cccc(-c2cc(C(=O)N[C@H]3C4CC5CC3C[C@](C(N)=O)(C5)C4)no2)c1 [Example 6] , pIC50: < 6.30

What the record says about NC(=O)[C@]12CC3CC(C1)[C@@H](NC(=O)c1ccc(-c4cc(Cl)cc(Cl)c4)o1)C(C3)C2 [Example 32] : pIC50 is 6.30 to 7.00

pIC50 measured on NC(=O)[C@]12CC3CC(C1)[C@@H](NC(=O)c1ccc4ccccc4n1)C(C3)C2 [Example 18] = > 7.00

====

Kindly supply the reported IC50 values for the records listed here.
system under test: Mouse 11b-HSD1 (Mus musculus, UniProt P50172)
measurement notes: Inhibition of cortisone-to-cortisol conversion in CHO-K1 cells over-expressing mouse 11b-HSD1 (HTRF cortisol assay)
test parameters: CHO-K1 cells over-expressing mouse 11b-HSD1, 160 nM cortisone, 3 hours, 37° C.

Just so you know, measured IC50 for NC(=O)[C@]12CC3CC(C1)[C@@H](NC(=O)c1cc(-c4ccc(Cl)cc4)on1)C(C3)C2 came out at > 500 nM

Kindly note the recorded IC50 for NC(=O)[C@]12CC3CC(C1)[C@@H](NC(=O)c1ccc(-c4ccccc4)s1)C(C3)C2 , which is < 100 nM

The compound NC(=O)[C@]12CC3CC(C1)[C@@H](NC(=O)c1ccc(-c4ccc(Cl)cc4)s1)C(C3)C2 showed IC50 equal to 100 to 500 nM

Notebook: Cc1ccc(C(=O)N[C@H]2C3CC4CC2C[C@](C(N)=O)(C4)C3)s1 , IC50 read as 100 to 500 nM

====

Consider the following molecules; for each one, report its IC50.
system under test: UniProt P50172
measurement notes: Inhibition of cortisone-to-cortisol conversion in CHO-K1 cells over-expressing mouse 11b-HSD1 (HTRF cortisol assay)
test parameters: CHO-K1 cells over-expressing mouse 11b-HSD1, 160 nM cortisone, 3 hours, 37° C.

The reported IC50 of the molecule NC(=O)[C@]12CC3CC(C1)[C@@H](NC(=O)c1cccc4cccnc14)C(C3)C2 was < 100 nM

Record NC(=O)[C@]12CC3CC(C1)[C@@H](NC(=O)c1ccc(-c4ccccc4Cl)s1)C(C3)C2 . Reported IC50: < 100 nM

Per the records, this molecule ( CN(C)c1cccc(C(=O)N[C@H]2C3CC4CC2C[C@](C(N)=O)(C4)C3)n1 ) has IC50 equal to < 100 nM

Value of IC50 reported for the molecule CCC(C)Oc1cccc2ccc(C(=O)N[C@H]3C4CC5CC3C[C@](C(N)=O)(C5)C4)nc12 (stereo partly shown) is 100 to 500 nM

So, NC(=O)[C@]12CC3CC(C1)[C@@H](NC(=O)c1ccc(-c4ccc(Cl)c(Cl)c4)o1)C(C3)C2 ? Its IC50 was 100 to 500 nM

Value of measured IC50 for the entry NC(=O)[C@]12CC3CC(C1)[C@@H](NC(=O)c1ccc(-c4ccc(F)cc4)o1)C(C3)C2 : < 100 nM

IC50 in this record for NC(=O)[C@]12CC3CC(C1)[C@@H](NC(=O)c1cccs1)C(C3)C2 : > 500 nM

Please fill in: IC50 reported for Cn1c(C(=O)N[C@H]2C3CC4CC2C[C@](C(N)=O)(C4)C3)ccc1-c1ccc(F)cc1 = < 100 nM

The molecule identified as CC(C)COc1cccc2ccc(C(=O)N[C@H]3C4CC5CC3C[C@](C(N)=O)(C5)C4)nc12 registered its IC50 at > 500 nM

Measured IC50 of Cc1cccc(C(=O)N[C@H]2C3CC4CC2C[C@](C(N)=O)(C4)C3)[n+]1[O-] : > 500 nM

Short answer for NC(=O)[C@]12CC3CC(C1)[C@@H](NC(=O)c1ccc(-c4ccc(F)c(F)c4)o1)C(C3)C2 : IC50 was 100 to 500 nM

Lab note: Cn1c(C(=O)N[C@H]2C3CC4CC2C[C@](C(N)=O)(C4)C3)ccc1-c1ccccc1 gave IC50 of < 100 nM

What the record says about CCN(CC)c1cccc(C(=O)N[C@H]2C3CC4CC2C[C@](C(N)=O)(C4)C3)n1 : IC50 is < 100 nM

The reported IC50 of the molecule CCOc1cccc2ccc(C(=O)N[C@H]3C4CC5CC3C[C@](C(N)=O)(C5)C4)nc12 was < 100 nM

GET /value?item= Cn1c(C(=O)N[C@H]2C3CC4CC2C[C@](C(N)=O)(C4)C3)ccc1-c1ccc(C(F)(F)F)cc1 &field=IC50 returns 100 to 500 nM

NC(=O)[C@]12CC3CC(C1)[C@@H](NC(=O)c1cccc(N4CCCCC4)n1)C(C3)C2 has a reported IC50 of < 100 nM

====

system under test: 11b-HSD1 (Mus musculus, UniProt P50172)
Construct: the tissues in abdominal fat and the liver were obtained; from tissue; host or cells: abdominal fat and liver of C57Bl/6 mice
Sequence (P50172 whole entry): as above
measurement notes: Ex vivo PD assay: 11b-HSD1 inhibition in abdominal fat and liver tissue after oral administration to mice
test parameters: mouse C57B1/6, oral, 20 mg/Kg, 6 hr, liver, vs vehicle group; read-out: 11b-HSD1 % inhibition in the liver
Grouping key: inhibition at 20 mg/kg. Bins: low value (below 50%), medium value (50% to below 70%), high value (70% or more)

Class for NC(=O)[C@]12CC3CC(C1)[C@@H](NC(=O)c1ccc(-c4cccc(Cl)c4)o1)C(C3)C2 ?
low value

Form: Item = Cn1c(C(=O)N[C@H]2C3CC4CC2C[C@](C(N)=O)(C4)C3)ccc1-c1ccccc1F ; Class = ?
high value

Consider NC(=O)[C@]12CC3CC(C1)[C@@H](NC(=O)c1ccc(-c4ccccc4Cl)s1)C(C3)C2 . To which inhibition at 20 mg/kg class does it belong?
medium value

Which band does NC(=O)[C@]12CC3CC(C1)[C@@H](NC(=O)c1ccc4ccccc4n1)C(C3)C2 fall in?
medium value

Which bin, given its inhibition at 20 mg/kg, does Cn1c(C(=O)N[C@H]2C3CC4CC2C[C@](C(N)=O)(C4)C3)ccc1-c1ccccc1 occupy?
high value

Which of the defined bands does the recorded inhibition at 20 mg/kg of NC(=O)[C@]12CC3CC(C1)[C@@H](NC(=O)c1ccc(-c4ccccc4)s1)C(C3)C2 sit within?
low value

Lab note: sort NC(=O)[C@]12CC3CC(C1)[C@@H](NC(=O)c1ccc(-c4ccc(Cl)cc4)o1)C(C3)C2 into the matching inhibition at 20 mg/kg band.
low value

Band for NC(=O)[C@]12CC3CC(C1)[C@@H](NC(=O)c1ccc4ccccc4[n+]1[O-])C(C3)C2 ?
low value

Each compound maps to one class by inhibition at 20 mg/kg. Which class for Cn1c(C(=O)N[C@H]2C3CC4CC2C[C@](C(N)=O)(C4)C3)ccc1-c1ccccc1Cl ?
high value

Looking at NC(=O)[C@]12CC3CC(C1)[C@@H](NC(=O)c1ccc(-c4ccccc4Cl)o1)C(C3)C2 , which class would you pick?
medium value
